Tested on: PmTbr T-box DNA-binding domain (GST fusion);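 note: 200 nM protein in PBS on universal arrays averaged over duplicate arrays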
Sequence: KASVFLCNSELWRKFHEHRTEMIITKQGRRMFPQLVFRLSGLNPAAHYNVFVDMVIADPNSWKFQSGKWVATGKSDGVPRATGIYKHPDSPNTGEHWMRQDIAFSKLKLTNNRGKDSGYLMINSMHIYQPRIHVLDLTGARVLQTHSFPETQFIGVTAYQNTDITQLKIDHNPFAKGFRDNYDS
Experiment: PBM E-score of 8-mer (E-score (dimensionless, -0.5 to 0.5)); Tbr is Tbrain of the sea star Patiria miniata (Pm) or the sea urchin Strongylocentrotus purpuratus (Sp); higher = stronger binding preference
Conditions: the construct has about 5 more residues each side
The full ranking holds about 33,000 sequences; the median of “E-score (dimensionless, -0.5 to 0.5)” is about -0.049, and the highest 2% start at about 0.37. Only a selection was taken, and the highest values are over-represented in it overall.
measure: PBM E-score of 8-mer

Request: Fill in: PBM E-score of 8-mer of "CCCTCTCG" is ___
Result: 0.0695

Request: Try the sequence "GCGCACCA"
Result: -0.0144

Request: Try the sequence "GAACCTGC"
Result: -0.162

Request: Try the sequence "ATCAGAAG"
Result: -0.0178

Request: Try the sequence "CAACGCTC"
Result: -0.0448

Request: Try the sequence "AGTGCTAT"
Result: 0.27

Request: Try the sequence "ACGTGTCT"
Result: 0.198

Request: Try the sequence "CGTGCGAA"
Result: 0.448

Request: Try the sequence "CGTGCTAG"
Result: 0.287

Request: Try the sequence "ACTCAGCA"
Result: -0.151

Request: Try the sequence "TATGCGAA"
Result: 0.157

Request: Try the sequence "ACAGCCTC"
Result: -0.206

Request: Try the sequence "ACTATGCT"
Result: 0.00416

Request: Try the sequence "GGCGTTAA"
Result: 0.377

Request: Try the sequence "ACAGGTCC"
Result: 0.0798

Request: Try the sequence "AAGGTGGC"
Result: 0.383

Request: Try the sequence "GCAATTCA"
Result: 0.0777

Request: Try the sequence "AAACCTGA"
Result: 0.0859

Request: Try the sequence "TTGAGCAA"
Result: -0.0163

Request: Try the sequence "AAGGTGGG"
Result: 0.221

Request: Try the sequence "ACACATCT"
Result: 0.325

Request: Try the sequence "GCAGGTGA"
Result: 0.439

Request: Try the sequence "AAGGTGGA"
Result: -0.0394

Request: Try the sequence "ACAGGTGG"
Result: 0.331

Request: Try the sequence "GGTCGACC"
Result: -0.253

Request: Try the sequence "CAACCGTG"
Result: 0.216

Request: Try the sequence "ATAGGCAT"
Result: -0.337

Request: Try the sequence "CCACCTTC"
Result: 0.31

Request: Try the sequence "CCACATCC"
Result: -0.102

Request: Try the sequence "ACACATCC"
Result: 0.387

Request: Try the sequence "TAGCACCA"
Result: 0.403

Request: Try the sequence "AGCGTCAA"
Result: 0.258

Request: Try the sequence "GGTGCGTA"
Result: 0.262

Request: Try the sequence "ACCATTCG"
Result: 0.233

Request: Try the sequence "CATTCTTA"
Result: -0.235

Request: Try the sequence "GGTGCTAC"
Result: 0.434

Request: Try the sequence "AAGTTTCT"
Result: 0.101

Request: Try the sequence "CCGGTTAC"
Result: -0.0412

Request: Try the sequence "GACCACCA"
Result: -0.142

Request: Try the sequence "CGTGCAAA"
Result: 0.11

Request: Try the sequence "ACTGCGAC"
Result: 0.0881

Request: Try the sequence "TCTGCGAA"
Result: 0.201

Request: Try the sequence "ATGCGAAC"
Result: 0.13

Request: Try the sequence "CCAGGTGA"
Result: 0.339

Request: Try the sequence "AACGTGTC"
Result: 0.41

Request: Try the sequence "TGTGCGAA"
Result: 0.448

Request: Try the sequence "ACAGGTGC"
Result: 0.441

Request: Try the sequence "CCGCACCA"
Result: 0.187

Request: Try the sequence "AGATGCTG"
Result: -0.149

Request: Try the sequence "ACACCTTC"
Result: 0.479

Request: Try the sequence "ATCGAACA"
Result: -0.0797

Request: Try the sequence "GGTGCTCA"
Result: -0.112

Request: Try the sequence "GAGGTGGA"
Result: 0.0566

Request: Try the sequence "CTGTTCTC"
Result: 0.0542

Request: Try the sequence "GGTGCGAA"
Result: 0.49

Request: Try the sequence "CGCGTCAA"
Result: 0.308

Request: Try the sequence "TACAACGA"
Result: -0.18

Request: Try the sequence "CTGCGAAC"
Result: 0.324

Request: Try the sequence "ATAGGCAC"
Result: -0.0213

Request: Try the sequence "AGCGTGTC"
Result: 0.174

Request: Try the sequence "GAAGATCC"
Result: -0.101

The origin of these recorded values is the supplement of paper PMC4166925.
